Entries and their measured percent P50 decrease (increase in Hb oxygen affinity) at 5000 µM follow.
- Test target: Hb (Homo sapiens, UniProt P68871+P69905, E7V)
- Construct: Leftover blood samples from patients with homozygous SS were obtained and utilized; from tissue; host or cells: blood (red blood cells) of patients with homozygous SS
- Assay explanation: Hb oxygen equilibrium study (P50 shift, Hemox Analyzer) on lysate of treated SS cells
- Assay type: cell-based
- Assay setup: 5 mM compound; intact SS cells; read-out: increase in Hb oxygen affinity (ΔP50)
Give the number; % is assumed, so skip it.

Compound	Test target	Obs value
C#CC(=O)c1ccc(OC)cc1	Hb (Homo sapiens, UniProt P68871+P69905, E7V)	62
COc1cc(C=O)ccc1O	Hb (Homo sapiens, UniProt P68871+P69905, E7V)	27
C=CC(=O)c1ccc(OC2CCCCO2)cc1 (stereo not shown)	Hb (Homo sapiens, UniProt P68871+P69905, E7V)	39

Q: Entry C=CC(=O)c1ccc(OC)cc1 : reported percent P50 decrease (increase in Hb oxygen affinity) at 5000 µM = ?
Ans: 51

====

Entries and their measured percent P50 decrease (increase in Hb oxygen affinity) at 2000 µM follow.
- Test target: Hb (Homo sapiens, UniProt P68871+P69905, E7V)
- Construct: Leftover blood samples from patients with homozygous SS were obtained and utilized; from tissue; host or cells: blood (red blood cells) of patients with homozygous SS
- Assay explanation: Hb oxygen equilibrium study (P50 shift, Hemox Analyzer) on lysate of treated SS cells
- Format: cell-based
- Assay setup: 2 mM compound; intact SS cells; read-out: increase in Hb oxygen affinity (ΔP50)

See these solved cases before continuing.
Compound	Obs value
C=CC(=O)c1ccc(OC)cc1 [MMA-202, 1-(4-methoxyphenyl)prop-2-en-1-one]	13%
COc1cc(C=O)ccc1O [vanillin]	12%
C=CC(=O)c1ccc(OC2CCCCO2)cc1 (stereo not shown) [MMA-205]	21%

Below: the item to evaluate.
Q: Entry C#CC(=O)c1ccc(OC)cc1 [MMA-204, 1-(4-methoxyphenyl)prop-2-yn-1-one] : reported percent P50 decrease (increase in Hb oxygen affinity) at 2000 µM = ?
Ans: 29%

# credit: patent US11104632B1
